Consider the following sequences and their measured relative binding ratio (IC50 of the test peptide divided by IC50 of the reference peptide) readings.
# Measured Target: DRB1*1501 (Homo sapiens, UniProt P01903+P01911)
# Assay Protocol: HLA class II peptide-binding assay (competitive ELISA)
# Condition Parameters: immunopurified HLA, reference peptide IC50 775 nM, ratio ≤20 high affinity, 20–200 moderate affinity
Measured Metric: relative binding ratio (IC50 of the test peptide divided by IC50 of the reference peptide)

[
  {
    "Sequence Content": "LEAKVTMLISGRCQEVK [pTL3, Tear lipocalin peptide p49–65]",
    "Measured Target": "DRB1*1501 (Homo sapiens, UniProt P01903+P01911)",
    "Result": 1
  },
  {
    "Sequence Content": "ESILIPRQSETCSPGSD [pTL9, Tear lipocalin peptide p142–158]",
    "Measured Target": "DRB1*1501 (Homo sapiens, UniProt P01903+P01911)",
    "Result": "> 13"
  },
  {
    "Sequence Content": "ALEDFEKAAGARGLST [pTL8, Tear lipocalin peptide p126–141]",
    "Measured Target": "DRB1*1501 (Homo sapiens, UniProt P01903+P01911)",
    "Result": "> 13"
  }
]
